Experimental System: human TLR7 (Homo sapiens)
Construct: host or cells: HEK293 (HEK-Blue hTLR7)
Sequence (Q9NYK1 27-1049): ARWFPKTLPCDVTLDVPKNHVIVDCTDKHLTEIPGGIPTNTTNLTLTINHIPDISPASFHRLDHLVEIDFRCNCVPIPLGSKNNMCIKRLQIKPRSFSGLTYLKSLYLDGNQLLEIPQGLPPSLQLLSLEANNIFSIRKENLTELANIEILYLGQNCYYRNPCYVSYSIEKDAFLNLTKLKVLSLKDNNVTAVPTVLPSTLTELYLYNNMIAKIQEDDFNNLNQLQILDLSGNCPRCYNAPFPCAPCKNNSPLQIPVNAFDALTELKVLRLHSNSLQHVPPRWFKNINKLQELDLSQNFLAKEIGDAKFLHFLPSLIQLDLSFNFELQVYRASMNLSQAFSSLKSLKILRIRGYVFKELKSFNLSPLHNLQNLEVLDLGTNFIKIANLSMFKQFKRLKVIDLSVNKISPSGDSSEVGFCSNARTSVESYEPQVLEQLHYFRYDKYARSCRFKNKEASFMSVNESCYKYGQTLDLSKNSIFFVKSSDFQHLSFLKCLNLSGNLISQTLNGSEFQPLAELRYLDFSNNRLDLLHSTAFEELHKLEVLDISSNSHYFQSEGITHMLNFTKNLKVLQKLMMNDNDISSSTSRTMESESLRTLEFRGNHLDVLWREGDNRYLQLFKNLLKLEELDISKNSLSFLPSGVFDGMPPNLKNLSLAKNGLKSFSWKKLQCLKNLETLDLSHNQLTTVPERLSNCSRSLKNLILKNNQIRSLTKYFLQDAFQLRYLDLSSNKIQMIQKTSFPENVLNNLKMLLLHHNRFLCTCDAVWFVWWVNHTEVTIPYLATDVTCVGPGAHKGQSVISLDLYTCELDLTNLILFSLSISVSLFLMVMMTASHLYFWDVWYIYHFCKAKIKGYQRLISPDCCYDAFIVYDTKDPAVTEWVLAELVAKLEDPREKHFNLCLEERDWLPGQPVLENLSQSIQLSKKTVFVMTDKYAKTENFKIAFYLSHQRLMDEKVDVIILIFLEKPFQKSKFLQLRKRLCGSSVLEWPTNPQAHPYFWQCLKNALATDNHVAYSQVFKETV
Experiment Description: HEK293-Blue-hTLR-7 cells assay
Assay type: cell-based
Recorded Conditions: HEK293-Blue-hTLR7 cells, R848 stimulation, 20 hrs; read-out: HEK/hTLR7 IC50
Measured Parameter: log10 IC50 (log10 of the value in nM)
Please keep in mind that the values are log10 of IC50 expressed in nM.

For orientation, consider the following solved cases.
Cc1cc(N2CCC(c3ccc(N4CCNCC4)nc3C)CC2)c2cnn(C)c2n1 | 1.59
Cc1cc(N2CC[C@@H](c3ncc(N4C[C@H]5NCCO[C@@H]5C4)cc3C)[C@H](C)C2)c2cnn(C)c2n1 | 1.04
Cc1cc(N2CCC(c3ncc(N4CCNCC4)cc3C)[C@H](C)C2)c2cnn(C)c2n1 (single isomer, unassigned) [Example 24] | 1.91
Cc1cc(N2CC[C@H](c3ccc(N4CC[C@@H](N)[C@H](F)C4)cn3)[C@@H](C)C2)c2cnn(C)c2n1 | 0.78
Cc1cc(N2CC[C@H](c3ccc(N4CCOC[C@@H](N)C4)cn3)[C@@H](C)C2)c2cnn(C)c2n1 | 0.95
CO[C@H]1CN(c2cnc(C3CCN(c4cc(C)nc5c4cnn5C)CC3)c(C)c2)CC[C@@H]1N | 1.34
Cc1cc(N2CCC(c3cnc(N4CCNCC4)cc3C)CC2)c2cnn(C)c2n1 | 1.72

// switching to the query compound
stdin: Which log10 IC50 value is on record for `Cc1cc(N2CC[C@H](c3ccc(N4CC5(CNCCO5)C4)cn3)[C@@H](C)C2)c2cnn(C)c2n1` ?
stdout: 1.11
